tested on: SK-MEL-28 melanoma; test: NCI-60 one-dose screen, 48 h (100 = growth as untreated, 0 = no growth, -100 = all killed); settings: 10 µM
Compounds without any hit were thinned out: in the full panel of roughly 83,000, 20% have a hit.
MEASUREMENT_LABEL: growth (%)

>>> df
                                    molecule                 tgt  measurement_label  uom  numeric_value
 0        Cn1cc(/C=N/Nc2cccc(Cl)n2)c2ccccc21  SK-MEL-28 melanoma             growth    %            104
 1  Cn1cc(/C=N/Nc2ccnc3cc(Cl)ccc23)c2ccccc21  SK-MEL-28 melanoma             growth    %          -89.6
 2  COc1ccc2nc(Cl)c(-c3cc(-c4ccccc4)nc(=O)[nH]3)cc2c1  SK-MEL-28 melanoma             growth    %           97.7
 3  NS(=O)(=O)c1ccc(N=Nc2c(O)n(CC(=O)Nc3ccccc3Br)c3ccccc23)cc1  SK-MEL-28 melanoma             growth    %           24.9
 4  CC1(c2ccccc2)NC(=O)N(CC(=O)Nc2ccc(C(=O)/C=C/c3ccc(Br)cc3)cc2)C1=O (stereo not drawn)  SK-MEL-28 melanoma             growth    %           48.9
 5  CC(=O)Nc1ccc(-c2cn(-c3cccc(C(=O)Nc4ccc(Cl)c(C(F)(F)F)c4)c3)nn2)cn1  SK-MEL-28 melanoma             growth    %          -80.6
 6  O=c1oc2ccc(-c3ccc(F)cc3F)cc2c(=O)n1-c1ccc(F)cc1  SK-MEL-28 melanoma             growth    %         -0.667
 7       COc1ccccc1NCc1ccc(CO)n1-c1ccc(C)cc1  SK-MEL-28 melanoma             growth    %            106
 8  CCOc1ccc2ncc(C#Cc3cncc(C(=O)Nc4ccc(CN5CCN(C)CC5)c(C(F)(F)F)c4)c3)n2n1  SK-MEL-28 melanoma             growth    %          -83.1
 9  Cc1nc2c(cnn2-c2ccccc2)c(=O)n1-c1ccc(NC(=O)c2ccc(F)cc2)cc1  SK-MEL-28 melanoma             growth    %           83.8
10  COc1cc2c(c(OC)c1OC)C(=O)CC(c1cccc(NC(=O)c3cccc(N)c3)c1)O2 (stereo not drawn)  SK-MEL-28 melanoma             growth    %            100
11  CCCCSc1nc(Nc2ccc(/C(C)=N/NC(N)=S)cc2)c(C#N)c(-c2ccccc2)n1  SK-MEL-28 melanoma             growth    %           66.3
12  O=C1Nc2cc(Cl)ccc2/C1=C/c1ccc(OCc2ccc(Br)cc2F)cc1  SK-MEL-28 melanoma             growth    %          -60.7

====

# reported growth; entries follow
system: SF-295 CNS; assay: NCI-60 one-dose screen, 48 h (100 = growth as untreated, 0 = no growth, -100 = all killed); conditions: 10 µM
Compounds without any hit were thinned out: in the full panel of roughly 83,000, 20% have a hit.
MEASUREMENT_LABEL: growth (%)

                                   compound  measurement_label  numeric_value
0  Cc1noc2c(Cc3ccccc3)nn(CC(=O)N/N=C/c3ccc(Cl)cc3)c(=O)c12             growth           38.8
1  C=C1CCC2C3(C)COC(c4cc(F)cc(F)c4)OC3CCC2(C)C1C/C=C1/C(=O)OCC1O (centres undefined)             growth          -82.7
2  Cc1cc(C)cc(Oc2cccc(-c3c(C)nnn3C3CCN(CCN(C)C)CC3)n2)c1             growth           32.9
3  C/C(=C\CSc1ccccc1C(=O)O)CCCC(C)CCCC(C)CCCC(C)C (centres undefined)             growth           40.6

====

Catalogue of growth readings, one per entry.
tested on: MDA-MB-231 breast; assay: NCI-60 one-dose screen, 48 h (100 = growth as untreated, 0 = no growth, -100 = all killed); settings: 10 µM
About 83,000 compounds went through this panel and 20% of them were active in at least one assay; those are over-represented in the sample as a whole.
MEASUREMENT_LABEL: growth (%)

                                    compound  numeric_value
 0  O=C(c1ccc(Cl)cc1)C1[C@H](c2ccc(Br)cc2)[C@@H](c2ccccc2)NC12C(=O)Nc1ccccc12 (stereo partly specified)          -60.1
 1  CCCn1c(=O)c2[nH]c(-c3ccc(OCc4nc5ccccc5[nH]4)cc3)nc2n(CCC)c1=O          -42.6
 2        Nc1nc(Nc2ccccc2)nn1Cc1c(Cl)cccc1Cl           24.1
 3  COc1ccc(CCN2C(=O)/C(=C/c3csc(C#N)n3)SC2=S)cc1           15.8
 4  O=C(Nc1ccc(Cl)c([N+](=O)[O-])c1)Nc1ccc(Cl)c([N+](=O)[O-])c1           17.5
 5               CN1C(=O)/C(=C/c2nccs2)SC1=S           87.5
 6  COc1ccc(C(=O)/C=C/c2cc(C(F)(F)F)cc(C(F)(F)F)c2)cc1S(N)(=O)=O          -77.8
 7  CN1CCN(c2ccc(C(=O)/C=C/c3cc(Br)ccc3F)cc2)CC1           26.9
 8  CC(=O)Nc1nc(-c2ccc(N3CCN(C)CC3)c(NS(=O)(=O)c3cccc4c(N(C)C)cccc34)c2)cs1             65
 9  CN(C)CCNC(=O)OCCCCOc1cc(O)c2c(=O)cc(-c3ccccc3)oc2c1          -77.8
10  COc1cccc(C(N)=Nc2ccc(OCCCCCCn3cncn3)cc2)c1           13.6
11  CN1CCN(Cc2ccc(C(=O)Nc3cccc(Nc4ccc5c(O)cccc5n4)c3)cc2C(F)(F)F)CC1          -59.5
12  O=C(NCCCCC(c1ccc(F)cc1)c1ccc(F)cc1)NCCCc1cccnc1           44.8
13  COC(=O)C(Cc1ccc(O)c(O)c1)NC(=O)C(CSC/C=C(\C)CCCC(C)CCCC(C)CCCC(C)C)NC(C)=O (stereo unspecified)           38.1
14  COc1ccc(CN2[C@@H](C(=O)NCc3ccc(C(=O)NO)cc3)Cc3c([nH]c4ccccc34)[C@@H]2C2CC2)cc1           5.56
15  COC[C@@H](CC(C)C)N=C1N/C(=C\c2ccc3ncsc3c2)C(=O)N1C          0.748
16  COc1ccc(C(=O)/C=C/c2ccc(Cl)c(C(F)(F)F)c2)cc1S(N)(=O)=O           -100
17  Nc1n[nH]c2cccc(C#Cc3cccc(NC(=O)Nc4cc(C(F)(F)F)cc(C(F)(F)F)c4)c3)c12          -93.4
18  CCNCCCn1c2c(c3cc(OC)c(OC)cc3c1=O)C(=O)c1cc3c(nc1-2)OCO3          -91.6
19  COC[C@@H](CC(C)C)N=C1NC(=O)/C(=C/c2ccc3ncsc3c2)N1           9.26
20  O=C(O)CCCCCCCCCCN1C(=O)/C(=C/c2cnc(-c3ccc(Cl)cc3)s2)SC1=S           48.9
21  CNC(=O)c1cccc(N2CCc3c2ccc(NC(=O)Nc2ccc(N4CCN(C)CC4)c(C(F)(F)F)c2)c3F)c1          -94.8
22  CC(=O)Nc1ccc(-c2cn(-c3cccc(C(=O)Nc4ccc(Cl)c(C(F)(F)F)c4)c3)nn2)cn1            -87
23  N[C@@H](CSSC[C@H](N)C(=O)Nc1ccc(OCC2CCCC2)cc1)C(=O)Nc1ccc(OCC2CCCC2)cc1          -97.4
24  COc1ccc(C(=O)Nc2ccc(-c3ccc4c(c3)NC(=O)/C4=C\c3ccc[nH]3)cc2)cc1           25.6
25  Cc1ccc(CSc2nc(-c3ccc(F)cc3)c(C#N)c(=O)[nH]2)cc1            104
26  Cc1ccc(-c2nc(Nc3ccc(C)c(S(N)(=O)=O)c3)c3ccccc3n2)cc1           96.5
27  COc1ccc(-c2cc(C(=O)N=Nc3c(O)[nH]c4ccccc34)c3ccccc3n2)cc1          -58.8
28  COc1cc(/C=C/C(=O)c2cc(OC)c(OC)c(OC)c2)ccc1Oc1nc(Nc2ccc(F)cc2)nc(N(C)C)n1            -60
29  Cc1cc(=O)oc2cc(OCCCCOc3ccc(/C=C/C(=O)Nc4ccc(F)c(Cl)c4)cc3)ccc12           97.1
30  COc1cc(NC(=O)CSc2nnc(-c3ccc4nc(-c5ccc(Cl)cc5)[nH]c4c3)o2)cc(OC)c1OC           75.2
